biological target: UniProtKB P52333
Sequence (P52333 whole entry): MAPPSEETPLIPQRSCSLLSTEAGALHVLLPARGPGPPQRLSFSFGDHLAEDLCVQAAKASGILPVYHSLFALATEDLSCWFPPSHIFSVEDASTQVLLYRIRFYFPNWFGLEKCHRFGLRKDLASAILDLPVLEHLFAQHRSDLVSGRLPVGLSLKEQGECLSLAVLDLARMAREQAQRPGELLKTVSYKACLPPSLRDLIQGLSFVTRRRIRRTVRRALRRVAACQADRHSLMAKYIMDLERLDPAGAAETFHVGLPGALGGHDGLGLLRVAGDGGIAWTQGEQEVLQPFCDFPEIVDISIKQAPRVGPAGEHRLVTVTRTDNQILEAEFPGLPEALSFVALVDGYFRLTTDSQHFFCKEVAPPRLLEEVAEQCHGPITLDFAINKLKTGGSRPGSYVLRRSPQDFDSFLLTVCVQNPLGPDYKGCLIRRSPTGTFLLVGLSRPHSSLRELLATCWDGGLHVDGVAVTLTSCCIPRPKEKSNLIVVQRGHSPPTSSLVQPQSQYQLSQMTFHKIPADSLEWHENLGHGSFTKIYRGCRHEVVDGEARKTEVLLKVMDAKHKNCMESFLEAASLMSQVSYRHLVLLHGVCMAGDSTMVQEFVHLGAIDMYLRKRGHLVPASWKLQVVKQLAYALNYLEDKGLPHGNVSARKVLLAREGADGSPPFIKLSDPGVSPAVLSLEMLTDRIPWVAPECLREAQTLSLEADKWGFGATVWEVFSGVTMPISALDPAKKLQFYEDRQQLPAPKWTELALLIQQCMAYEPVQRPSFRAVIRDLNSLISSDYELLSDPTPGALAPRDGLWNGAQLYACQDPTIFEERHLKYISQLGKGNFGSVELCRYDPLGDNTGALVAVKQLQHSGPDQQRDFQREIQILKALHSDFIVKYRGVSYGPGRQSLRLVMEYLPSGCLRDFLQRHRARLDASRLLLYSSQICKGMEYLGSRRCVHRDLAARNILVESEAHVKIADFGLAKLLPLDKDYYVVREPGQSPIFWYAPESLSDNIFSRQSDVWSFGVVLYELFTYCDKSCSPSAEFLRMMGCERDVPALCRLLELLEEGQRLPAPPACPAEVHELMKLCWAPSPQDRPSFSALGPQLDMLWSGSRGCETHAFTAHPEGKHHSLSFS
# pIC50 listing for each entry below
Field pIC50 (float): negative decimal logarithm of the concentration in molar.

Would you please look over these solved cases?
| smiles-string | assayed-system | readout-value |
| --- | --- | --- |
| CNCCn1c2ccc(C(N)=O)cc2nc1[C@H]1CC[C@H](O)CC1 | UniProtKB P52333 | 5.72 |
| C[C@@H](O)Cn1c2ccc(C(N)=O)cc2nc1[C@H]1CC[C@H](O)CC1 | UniProtKB P52333 | 5.07 |

Hi! What's the reported pIC50 for `NCCCn1c(C2CCNCC2)nc2cc(C(N)=O)ccc21` on UniProtKB P52333?
4.84

Hi! What's the reported pIC50 for `NCCCn1c2ccc(C(N)=O)cc2nc1[C@H]1CC[C@H](O)CC1` on UniProtKB P52333?
4.91

Hi! What's the reported pIC50 for `CNCCn1c(C2CCNCC2)nc2cc(C(N)=O)ccc21` on UniProtKB P52333?
5.82
